tested on: Staphylococcus aureus MW2 delta-mecA (mecA-); experiment: normalized GFP fluorescence (growth of mecA- strain) (fraction of control range); higher = more growth of mecA- strain; conditions: compound concentration: 150 uM; cefoxitin: subinhibitory; fluorescent label: GFP
For each record, write down the corresponding normalized GFP fluorescence.
No unit in the answer, please; the number alone is enough.

Ask | // normalized GFP fluorescence lookup, key: CCCN(CCC)C(=O)C(CCC(=O)O)NC(=O)c1ccccc1 (stereo not given)
Reply | 0.792

Ask | For "Nc1cc(N2CCCCC2)nc(N)[n+]1[O-]" , what is its reported normalized GFP fluorescence?
Reply | 0.524

Ask | Could you share which normalized GFP fluorescence value was measured for CCc1ccc(CCOc2ccc(CC3SC(=O)NC3=O)cc2)nc1 (stereo not given) ?
Reply | 0.499

Ask | Query: normalized GFP fluorescence; subject: "CN1CCC(=C2c3ccccc3C=Cc3ccccc32)CC1"
Reply | 0.0037

Ask | # input compound: "C#Cc1cccc(Nc2ncnc3cc4c(cc23)OCCOCCOCCO4)c1" ; wanted: its normalized GFP fluorescence
Reply | 0.488

Ask | Report normalized GFP fluorescence for "CCCc1nc(C)c2c(O)nc(-c3cc(S(=O)(=O)N4CCN(CC)CC4)ccc3OCC)nn12" please.
Reply | 0.68

Ask | Can you look up the measured normalized GFP fluorescence of CC(C)(C)NCC(O)COc1cccc2c1CC(O)C(O)C2 (stereo not given) for me?
Reply | 0.721

Ask | Need normalized GFP fluorescence of "Cc1cc(CC(=O)O)n(C)c1C(=O)c1ccc(Cl)cc1" , thanks.
Reply | 0.288

Ask | Can you look up the measured normalized GFP fluorescence of "CCC[C@H](N[C@@H](C)C(=O)N1[C@H](C(=O)O)C[C@@H]2CCCC[C@@H]21)C(=O)OCC" for me?
Reply | 0.225

Ask | Quick check: normalized GFP fluorescence of COCCc1ccc(OCC(O)CNC(C)C)cc1 (stereo not given) ?
Reply | 0.861
